RECORDED CONDITIONS: dog, in vivo
PARAMETER: clearance

Fill in reported clearance for this entry: COc1cccc2c1C(=O)c1c(O)c3c(c(O)c1C2=O)C[C@@](O)(C(=O)CO)C[C@@H]3O[C@H]1C[C@H](N)[C@H](O)[C@H](C)O1.Cl [Free DOX, Doxorubicin HCl]
10 to 15 mL/min

----------
EXPERIMENT NOTES: Maximum tolerated dose
RECORDED CONDITIONS: mouse, in vivo
Counter-ions that a name gives are not always drawn.
PARAMETER: MTD at 14 days

Could you please provide reported MTD at 14 days for COc1cccc2c1C(=O)c1c(O)c3c(c(O)c1C2=O)C[C@@](O)(C(=O)CO)C[C@@H]3O[C@H]1C[C@H](N)[C@@H](O)[C@H](C)O1 [EPI, Epirubicin HCl] ? Thanks!
10 mg/kg
